biological target: Sterol 14-alpha demethylase (Trypanosoma cruzi (strain CL Brener)) (UniProt Q7Z1V1); test: Inhibition of Trypanosoma cruzi CYP51 assessed as residual enzyme activity at 100 uM using [3H]-MDL as substrate pretreated for 10 mins followed by NADPH addition by RP-HPLC analysis relative to control
Sequence (Q7Z1V1 whole entry, looked up): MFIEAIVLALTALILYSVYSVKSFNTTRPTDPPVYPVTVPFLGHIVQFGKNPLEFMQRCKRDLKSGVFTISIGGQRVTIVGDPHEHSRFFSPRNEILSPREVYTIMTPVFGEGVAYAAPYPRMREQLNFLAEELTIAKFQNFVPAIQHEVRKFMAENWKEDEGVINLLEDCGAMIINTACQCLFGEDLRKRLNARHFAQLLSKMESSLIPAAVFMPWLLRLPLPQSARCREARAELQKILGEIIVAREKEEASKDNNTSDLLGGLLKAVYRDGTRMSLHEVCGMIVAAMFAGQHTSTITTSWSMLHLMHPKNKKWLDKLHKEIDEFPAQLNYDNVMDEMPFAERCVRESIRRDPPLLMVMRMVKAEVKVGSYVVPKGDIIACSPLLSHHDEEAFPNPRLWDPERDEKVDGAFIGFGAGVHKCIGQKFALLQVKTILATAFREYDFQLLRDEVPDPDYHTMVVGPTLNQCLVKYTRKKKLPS
Measured endpoint: Activity (%)

INSERT INTO measurements (structure_string, measured_endpoint, observed_result) VALUES
  ('CCCc1cn(C/C=C(\C)CC/C=C(\C)CCC=C(C)C)nn1', 'Activity', 56),
  ('CCCc1cn(C/C=C(/C)CC/C=C(\C)CCC=C(C)C)nn1', 'Activity', 49),
  ('COC(=O)c1cn(C/C=C(\C)CC/C=C(\C)CCC=C(C)C)nn1', 'Activity', 63),
  ('CCCCCc1cn(C/C=C(\C)CC/C=C(\C)CCC=C(C)C)nn1', 'Activity', 33);

[a] CCCCCc1cn(C/C=C(/C)CC/C=C(\C)CCC=C(C)C)nn1
[b] COC(=O)c1cn(C/C=C(/C)CC/C=C(\C)CCC=C(C)C)nn1
Exam item: Consider entries a and b . Which has the numerically lower Activity? Label of pick, please.
Marked response: a

====

assay: Octanol/water partition coefficient, log P of the compound; assay type: physicochemical
Measured endpoint: logP

Answered cases to consult:
INSERT INTO measurements (structure_string, observed_result) VALUES
  ('CCCCCc1cn(CC=C(C)C)nn1', 3.46),
  ('N=C(N)c1ccc(OCCCCCOc2ccc(C(=N)N)cc2)cc1', 1.49),
  ('CC(C)=CCC/C(C)=C\Cn1cc(-c2ccccc2)nn1', 4.91),
  ('CCCc1cn(C/C=C(\C)CC/C=C(\C)CCC=C(C)C)nn1', 6.5),
  ('CC(C)=CCC/C(C)=C/Cn1cc(-c2ccccc2)nn1', 4.91);

[a] COC(=O)c1cn(C/C=C(\C)CC/C=C(\C)CCC=C(C)C)nn1
[b] CCCCCCCCc1cn(C/C=C(\C)CC/C=C(\C)CCC=C(C)C)nn1
Exam item: Consider entries a and b . Which has the numerically lower logP? Label of pick, please.
Marked response: a
(a: 5.25, b: 8.76)

[I] CCCc1cn(C/C=C(/C)CCC=C(C)C)nn1
[II] CC(C)=CCC/C(C)=C/CC/C(C)=C\Cn1cc(-c2ccccc2)nn1
Exam item: Higher logP: I or II ? Label of pick, please.
Marked response: II
(II: 6.95, I: 4.05)

All values here come from ChEMBL document CHEMBL4261495.
